In this section we review reported composite z-score values for a set of compounds.
experiment: probe aWnt5a binding to arrayed compounds – biochemical, biotinylated probe, 635/667 nm fluorescence, primary screen (AID 1113); conditions: small-molecule microarray, higher = more signal;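 further: score merges 667 nm fluorescence intensity with signal-to-noise per printed feature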
When you answer, write just the number.

// known answers, use as guide
COMPOUND	composite z-score
CC(C)N1C(=O)c2ccccc2[C@@H](C(=O)NCC(F)(F)F)[C@@H]1c1ccc(CO)cc1	-0.0334
O=C1[C@H]2C=C(I)[C@H](C[C@@H]2c2ccccc2)[C@@]12CO2	-0.0977
CC(C)C(O)C1C=CC2C(=O)NC(=O)C2N1Nc1ccccn1 (stereo not drawn)	0.009
[N-]=[N+]=Nc1ccccc1C[C@]1(C(=O)N2CCOCC2)N=C(c2ccc(OCCCO)cc2)O[C@H]1c1ccccc1N=[N+]=[N-]	0.145

Please turn your attention to the following entry.
Tell me the measured composite z-score of `Cc1ccc(S[C@]2(C(=O)NCCCN(C)C)CC(=O)N(C3Cc4ccccc4C3)[C@@H]2c2ccc(CO)cc2I)cc1` , please.
0.0792

----------
assay: probe aLefty2 binding to arrayed compounds – biochemical, biotinylated probe, 635/667 nm fluorescence, primary screen (AID 1094); conditions: small-molecule microarray, higher = more signal;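 further: score merges spot fluorescence near 667 nm with spot signal-to-noise ratio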
Entry flag: label 1 if composite z-score reaches 0.009; label 0 if it does not.

COMPOUND	CLASSIFICATION
[N-]=[N+]=Nc1ccccc1[C@H]1OC(c2ccc(OCCCO)cc2)=N[C@@]1(Cc1ccccc1)C(=O)NCC(O)CO (stereo partly specified)	label 1

Given the entry `COCCOC(=O)N1C(=O)[C@@]2(c3cc(C#CCCO)ccc31)[C@H](c1ccc(OCCO)cc1)N1[C@H](c3ccccc3)[C@H](c3ccccc3)OC(=O)[C@H]1[C@@H]2C(=O)N1CCCCCCC1` , answer whether its composite z-score meets or surpasses 0.009.
label 1

composite z-score >= 0.009 for `CC(C)C(=C=CC[C@H](O)c1ccccc1OCCO)C[C@H](O)c1cc(Cl)cc(Cl)c1O` ?
label 0

hey, is composite z-score for this one >= 0.009? CC(C)(C)OC(=O)CC[C@]1(C(=O)NCC(O)CO)N=C(c2ccc(OCCCO)cc2)O[C@H]1c1ccccc1N=[N+]=[N-] (stereo partly specified)
label 1

Hi team, for `COC(=O)[C@@]1(Cc2ccc(F)cc2)[C@H]2c3cc(C(=O)N(C)C)n(C)c3C[C@H]2CN1C(=O)c1ccccc1` , is the recorded composite z-score at or above 0.009?
label 1

Can C=CC1c2cc(O)c(OC)cc2CCN1C (stereo unspecified) be said to have composite z-score at or above 0.009?
label 1

Does the reported composite z-score for CN1C(=O)C2C(C1=O)C1C=C(c3ccc(CO)cc3)C2C(C2CC2)N1C (stereo unspecified) fall at or above the 0.009 mark?
label 0

Entry CN1C(=O)C2C(C1=O)C1C=C(CCCO)C2C(C2CC2)N1Cc1cccc(OC(F)(F)F)c1 (stereo unspecified) : is its composite z-score no less than 0.009?
label 0

State whether the measured composite z-score reaches 0.009, counting equality as reaching it, for `CCCNC(=O)[C@@]1(Sc2ccc(C)cc2)CC(=O)N(Cc2ccccc2Cl)[C@@H]1c1ccc(CO)cc1I`
label 1

Item `CC(C)c1nc2cc(Br)ccc2c(=O)o1` with composite z-score of 0.009 or above?
label 0

Quick check, composite z-score >= 0.009? `CC(C)N1C(=O)c2ccccc2[C@](C)(C(=O)NCC(F)(F)F)[C@@H]1c1ccc(CO)cc1`
label 1

----------
target: NADPH oxidase 4 (Homo sapiens); assay: compounds shifting NOX4 Amplex Red fluorescence – cell-based, HEK293-NOX4, tetracycline-induced, NOX inhibitor project, primary screen (AID 1160); settings: HEK293-NOX4, Amplex Red H2O2 fluorescence, 45 min; higher = more signal, called active from +8 up or from −8 down
The source made the active and inactive calls.
ENDPOINT_LABEL: z-score

COMPOUND	TEST_SYSTEM	ENDPOINT_LABEL	MEAS_VALUE
CCCN1C(=O)[C@@]2(c3ccc([N+](=O)[O-])cc3)CC(=O)N(CC34CC5CC(CC(C5)C3)C4)[C@@H]2c2ccc(CO)cc21	NADPH oxidase 4 (Homo sapiens)	z-score	0.148 (inactive)

I have this compound here, `COC(=O)C(CC#Cc1ccc2c(c1)[C@]1(C(=O)N2)[C@H](C(=O)NC[C@H](O)c2ccccc2)[C@H]2C(=O)O[C@H](c3ccccc3)[C@H](c3ccccc3)N2[C@@H]1c1ccccc1OCCO)C(=O)OC` , and I need its recorded z-score.
-0.421 (inactive)

Return reported z-score; argument: C=CCC(OC(C)=O)[C@@H]1[C@@H](N(Cc2ccc(-c3cccc(C(F)(F)F)c3)o2)C(=O)Cc2ccc(F)cc2)c2cc(OCCCO)ccc2N1C(=O)Cc1ccc2ccccc2c1 (stereo partly specified)
0.896 (inactive)

Value lookup for z-score; key = `COCCOC(=O)N1C(=O)[C@@]2(c3cc(C#CCC(C(=O)OC)C(=O)OC)ccc31)[C@H](C(N)=O)[C@H]1C(=O)O[C@H](c3ccccc3)[C@H](c3ccccc3)N1[C@@H]2c1ccc(O)cc1`
0.385 (inactive)

Given `COC(=O)C[C@H]1O[C@@]2(C[C@@H]1[Si](C)(C)C)C(=O)N(C)c1ccccc12` , state its recorded z-score.
0.764 (inactive)

Bench note: what z-score did `C=C(CCCC)/C(=C/C[C@H](OC(=O)c1ccncc1)c1ccc(OCCO)cc1)c1cnc2ccccc2c1` show?
0.589 (inactive)

----------
tested on: PRMT1 (protein arginine N-methyltransferase 1); experiment: small molecules binding arginine methyltransferase PRMT1 – biochemical, small-molecule microarray, 635 nm fluorescence, primary screen (AID 1088); details: higher = more signal;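 further: binding of Prmt1 protein to compounds spotted on small-molecule microarray slides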
We begin with a simple list: items and their reported composite z-score.

COMPOUND	composite z-score
COc1ccc([Si](C)(C)[C@H]2[C@H](CC(=O)N3Cc4ccccc4C[C@H]3CO)O[C@@]3(C(=O)N(c4ccccc4)c4ccccc43)[C@@H]2C)cc1	1.53

Need composite z-score of `C=CC[C@@]1(C(=O)OC)N=C(c2ccc(OCCCO)cc2)O[C@@H]1c1ccccc1N=[N+]=[N-]` , thanks.
1.54

For the compound `C=C(CCCC)/C(=C/C[C@H](OC(=O)c1ccncc1)c1ccc(OCCO)cc1)c1cnc2ccccc2c1` , what composite z-score is on record?
1.51

----------
test: changes in parasitized red cell lysis, either direction – P. falciparum Indochina, OD700, 3 h, PSAC antagonist project, primary screen (AID 1156); details: P. falciparum-infected erythrocytes, osmotic lysis, higher = more signal, called active from +8 up or from −8 down
ENDPOINT_LABEL: z-score
Provide a numeric answer; units are not to be included.

As a guide, the following entries are already answered.
COMPOUND	z-score
CC1CC/C=C\[C@H]2OC34C=CCN(c5ccc(Cl)cc5)C(=O)[C@H]3N(CCCCCCO)C(=O)[C@]4(C)C2C(=O)O1 (stereo partly drawn)	-0.0544
C=CCN1C(=O)[C@]2(O[C@H](CCn3cc([C@H](O)c4ccccc4)nn3)[C@@H]([Si](C)(C)c3ccc(OC)cc3)[C@@H]2C)c2cc(NC(=O)c3ccc(OC)cc3)ccc21	2.59
C=CC[C@@]1(C(=O)OC)N=C(c2ccc(OCCCO)cc2)O[C@@H]1c1ccccc1N=[N+]=[N-]	4.11
COCCOC(=O)N1C(=O)[C@@]2(c3cc(C#CCC(C(=O)OC)C(=O)OC)ccc31)[C@H](C(N)=O)[C@H]1C(=O)O[C@H](c3ccccc3)[C@H](c3ccccc3)N1[C@@H]2c1ccc(O)cc1	3.28
C=C(COC)C(=O)CC[C@H](OC(=O)c1cccnc1)c1ccc(OCCO)cc1	0.247

Look up z-score: `C=C(CCCC)/C(=C/C[C@H](OC(=O)c1ccncc1)c1ccccc1OCCO)c1cc(C(=O)OC)ccc1OC`
3.84

Consider the compound shown here: `COCCCNC(=O)[C@@]1(CCC(=O)OC(C)(C)C)COC(c2ccc(OCCCO)cc2)=N1` What is its recorded z-score?
0.873

Would you mind telling me what z-score value was observed for `CCOC(=O)C[C@H]1[C@H](OC(=O)Cc2ccc3c(c2)OCO3)[C@@H](NC(=O)c2ccc3ccccc3n2)c2cc(OCCCO)ccc2N1C(=O)Cc1ccc(OC)cc1` ?
-0.997

----------
assay: JC-1 mitochondrial potential readout, lung cancer cells – cell-based, A549, JC-1 fluorescence, basal, 24 h, 100 nL, profiling panel (AID 1138); conditions: higher = more signal;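 further: A549 lung adenocarcinoma cells under basal conditions with no added stimulus; test concentration not given here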
Would you mind labelling by z-score? At or over 0.8 is 1, under is 0.

Illustrative cases are given below, each with its answer.
> print(dat)
                                   compound  classification
1  CC1CC/C=C\[C@H]2OC34C=CCN(c5ccc6ccccc6c5)C(=O)[C@H]3N(C(C)CO)C(=O)[C@@H]4C2C(=O)O1 (some centres not stated)               1
2  COc1cc(C(O)C2C=CC3C(=O)N(c4ccccc4)C(=O)C3N2Nc2ccccc2F)cc(OC)c1OC (configuration not stated)               0
3  CC(C)C(CO)N1C(=O)[C@@H]2C3C(=O)OCCC/C=C\[C@H]3OC23C=CCN(Cc2ccccc2)C(=O)[C@@H]13 (some centres not stated)               1
4  CCOC(=O)c1cn(C[C@H](Cc2ccccc2)NC(=O)N[C@H](CO)CCc2oc(C(C)=O)c(C(=O)OC)c2C(=O)OC)nn1               0
5  C=CCN1C(=O)[C@]2(O[C@H](CCn3cc([C@H](O)c4ccccc4)nn3)[C@@H]([Si](C)(C)c3ccc(OC)cc3)[C@@H]2C)c2cc(NC(=O)c3ccc(OC)cc3)ccc21               1

Lab note: next compound to report on.
Please check the record `C[N+](C)(C)CCCC[C@@H]1NC(=O)[C@H]2C[C@@H](C(=O)NCCCCCNC(=O)CS)[C@@H](c3cccc(OCCO)c3)N2C1=O` and state if its z-score is at or above 0.8.
0
